TARGET UNDER TEST: furin, P09958;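 also: purified furin at 1:10 enzyme:substrate in 50 mM HEPES pH 7.5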
Sequence (P09958 whole entry): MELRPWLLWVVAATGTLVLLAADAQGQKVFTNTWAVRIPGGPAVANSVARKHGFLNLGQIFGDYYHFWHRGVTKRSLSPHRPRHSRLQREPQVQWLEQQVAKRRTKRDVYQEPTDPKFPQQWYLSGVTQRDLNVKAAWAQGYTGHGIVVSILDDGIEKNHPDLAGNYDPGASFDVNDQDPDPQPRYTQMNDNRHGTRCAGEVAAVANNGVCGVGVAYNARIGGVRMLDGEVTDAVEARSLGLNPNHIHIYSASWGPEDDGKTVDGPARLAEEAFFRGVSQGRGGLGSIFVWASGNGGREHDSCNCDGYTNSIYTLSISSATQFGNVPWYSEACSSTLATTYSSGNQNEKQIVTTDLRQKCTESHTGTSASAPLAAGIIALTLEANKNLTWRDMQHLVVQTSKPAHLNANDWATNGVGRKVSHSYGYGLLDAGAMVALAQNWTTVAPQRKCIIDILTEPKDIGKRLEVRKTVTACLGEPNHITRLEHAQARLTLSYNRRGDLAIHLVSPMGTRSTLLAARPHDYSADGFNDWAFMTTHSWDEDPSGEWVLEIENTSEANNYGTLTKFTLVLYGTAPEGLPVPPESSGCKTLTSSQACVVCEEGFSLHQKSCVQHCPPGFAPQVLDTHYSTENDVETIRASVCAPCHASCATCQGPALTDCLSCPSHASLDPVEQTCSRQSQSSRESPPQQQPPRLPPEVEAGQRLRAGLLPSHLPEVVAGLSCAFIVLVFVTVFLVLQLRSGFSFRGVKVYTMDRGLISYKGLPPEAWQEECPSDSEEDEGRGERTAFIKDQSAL
TEST DETAILS: furin cleavage Z-score vs untreated control; higher = more cleavage, active = 3.5 or more, inactive = 1 or less, 8 variable residues between constant flanks
DETAILS: 30 min
Some of the results follow. How many sequences the whole screen found active is unknown.
The entries below are paired with their reported furin cleavage Z-score.

SEQ TEXT	furin cleavage Z-score
CAWLAGLFYHAGNASASA [HC379]	-1.72
CALSFRLKRNAGNASASA [FS-1372]	9.61
CAGLQDCTMLAGNASASA [HC1524]	0.816
CARRATLKRSAGNASASA [FS-624]	4.76
CATPQRLRRQAGNASASA [FS-570]	4.33
CALCGRYKRWAGNASASA [FS-49]	10.7
CAQCCDLDPQAGNASASA [HC1491]	-0.252
CADHMEECSQAGNASASA [HC1815]	-0.816
CARRRRDSRSAGNASASA [FS-1267]	7.48
CATPGLPVCQAGNASASA [HC933]	0.151
CATARHTPVNAGNASASA [HC1570]	-0.627
CAGQPGLKRSAGNASASA [FS-1203]	-2.33
CAMEECSRHLAGNASASA [HC1733]	1.88
CAKIARHYRWAGNASASA [FS-1634]	2.69
CARKRRAAIPAGNASASA [FS-2970]	9.65
CAVGCCSMSYAGNASASA [HC2016]	1.21
CARKRRMQEEAGNASASA [FS-2349]	2.78
CASTPCSCHLAGNASASA [HC2540]	-0.978
CARKRRHHKEAGNASASA [FS-2699]	4.3
CAMHECSQHLAGNASASA [HC1695]	1.59
CANSTALNCNAGNASASA [HC372]	0.944
CATCMSADLEAGNASASA [HC984]	1.54
CAREMEECSQAGNASASA [HC1793]	1.51
CAGSPRPRRRAGNASASA [FS-436]	7.64
CATTKCSGSWAGNASASA [HC1874]	-0.205
CAQLRRLKRNAGNASASA [FS-284]	9.76
CANKVRAKRSAGNASASA [FS-618]	8.36
CAVFSRDSRSAGNASASA [FS-103]	2.36
CARKRKKKEEAGNASASA [FS-2697]	0.0983
CAEFVVCCSMAGNASASA [HC2127]	-0.748
